- System: SF-268 CNS
- test_method_notes: NCI tumour cell line growth inhibition, 48 h
parameter_measured: log10 of TGI (log10 of the value in µM)
Short version: log10 scale, TGI, µM.

Query block: Look up and report measured log10 of TGI for this entry: O=C(Nc1cccc(-n2cc(-c3ccncc3)c(-c3ccc(O)c(Cl)c3)n2)c1)Nc1cccc(C(F)(F)F)c1
Result block: 1.00

Query block: Look up and report measured log10 of TGI for this entry: O=C1CS/C(=N\S(=O)(=O)c2ccc(N3N=C4c5ccccc5CC4C3c3ccc(Cl)cc3)cc2)N1c1ccccc1 (stereo not drawn)
Result block: 1.93

Query block: Look up and report measured log10 of TGI for this entry: COC1=C(Br)C(=O)C2=C(C1=O)C1C3=C(C(=O)C=CC3=O)C2c2ccccc21 (stereo not drawn)
Result block: 1.78

Query block: Look up and report measured log10 of TGI for this entry: C=C1C(=O)OC2CC(C)C3C=CC(=O)C3CC12 (stereo not drawn)
Result block: 0.87

Query block: Look up and report measured log10 of TGI for this entry: CC(=O)NC(Cc1ccc(OP(=O)(OCc2ccc([N+](=O)[O-])o2)N(C)CCCCCl)cc1)C(=O)NC(C)c1ccc(OCC2CCCCC2)c(C(N)=O)c1 (stereo not drawn)
Result block: 0.81

Query block: Look up and report measured log10 of TGI for this entry: Cc1c2c(cc3c(=O)ccn(CCN(C)C)c13)c(=O)ccn2CCN(C)C
Result block: 1.34

Query block: Look up and report measured log10 of TGI for this entry: CC(C)C1CC[C@H](C)C[C@@H]1OC(=O)C(C(=O)O[C@H]1C[C@@H](C)CCC1C(C)C)C(O)[C@@H]1OC(C)(C)O[C@H]1C1COC(C)(C)O1 (stereo partly drawn)
Result block: 1.63

Query block: Look up and report measured log10 of TGI for this entry: CCOC(=O)Cn1c(=O)c2cc(-c3ccccc3)cc3c(Cl)nc4c(OC)c(OC)cc1c4c32
Result block: 1.47

Query block: Look up and report measured log10 of TGI for this entry: Fc1ccc2[nH]cc(SSc3c[nH]c4ccc(F)cc34)c2c1
Result block: 1.34

Query block: Look up and report measured log10 of TGI for this entry: C=C1C(=O)O[C@H]2[C@H]1CC/C(Cn1cc(-c3cc(C)c(C)cc3C)nn1)=C\CC[C@@]1(C)O[C@@H]21
Result block: 0.49
